Test system: P. aeruginosa
Settings: sheet "Good" permeators; all listed compounds are good permeators
Structures can show the parent of a compound that is named as a salt.
assay-readout: Cluster of the identified "good" permeators

{"molecule": "CN1C[C@H](C(=O)N[C@]2(C)O[C@@]3(O)[C@@H]4CCCN4C(=O)[C@H](Cc4ccccc4)N3C2=O)C=C2c3cccc4[nH]cc(c34)C[C@H]21 [OU-0000834, Ergotamine Tartrate]", "value-reported": 3}
{"molecule": "C[C@@H]1CN(c2c(F)c(N)c3c(=O)c(C(=O)O)cn(C4CC4)c3c2F)C[C@H](C)N1", "value-reported": 4}
{"molecule": "N[C@@H](CC(=O)N1CCn2c(nnc2C(F)(F)F)C1)Cc1cc(F)c(F)cc1F [OU-0000833, Sitagliptin Monophosphate Monohydrate]", "value-reported": 1}
{"molecule": "CS(=O)(=O)O.C[C@H]1COc2c(C3(N)CC3)c(F)cc3c(=O)c(C(=O)O)cn1c23 [OU-0000627, PAZUFLOXACIN MESYLATE]", "value-reported": 1}
{"molecule": "CCn1cc(C(=O)O)c(=O)c2cc(F)c(N3CCNC(C)C3)c(F)c21 (stereo not drawn)", "value-reported": 4}
{"molecule": "CC(C)(C)OC(=O)N1[C@H](CCC2CCCCC2)CNC(=O)[C@@H]1Cc1cc(F)cc(F)c1", "value-reported": 3}

====

System: P. aeruginosa PAO1-Pore cells
Assay: LC–MS quantification of intracellular accumulation, PAO1-Pore;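 note: slope of accumulation versus external concentration fitted as a line through zero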
Conditions: 1 min incubation, 10-80 µM
Where a name gives a salt, the structure may show the parent alone.
assay-readout: Concentration slopes of accumulation, PAO1-Pore_1 min

{"compound": "CCN1CCCC1CNC(=O)c1cc(S(N)(=O)=O)ccc1OC.Cl (stereo not shown) [OU-0032505, Sulpiride HCl]", "target-of-assay": "P. aeruginosa PAO1-Pore cells", "value-reported": 7.04}
{"compound": "CC(=O)NC[C@H]1CN(c2ccc(N3CCOCC3)c(F)c2)C(=O)O1 [OU-0031508, linezolid]", "target-of-assay": "P. aeruginosa PAO1-Pore cells", "value-reported": 12.71}
{"compound": "O=C1CC2(CCCC2)CC(=O)N1CCCCN1CCN(c2ncccn2)CC1 [OU-0000735, Buspirone HCl]", "target-of-assay": "P. aeruginosa PAO1-Pore cells", "value-reported": 7.76}
{"compound": "CC(Cc1ccc(O)cc1)NCC(O)c1cc(O)cc(O)c1 (stereo not shown) [OU-0000755, Fenoterol HBr]", "target-of-assay": "P. aeruginosa PAO1-Pore cells", "value-reported": 1.22}

====

Measured Concentration slopes of accumulation, PΔ3_40 min of individual entries
Test system: P. aeruginosa PΔ3 cells;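 note: slope of accumulation versus external concentration fitted as a line through zero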
Conditions: 40 min incubation, 10-80 µM
Where a name gives a salt, the structure may show the parent alone.
assay-readout: Concentration slopes of accumulation, PΔ3_40 min

{"compound": "O=C(O)c1cn(C2CC2)c2cc(N3CCNCC3)c(F)cc2c1=O", "target-of-assay": "P. aeruginosa PΔ3 cells", "value-reported": 1.33}
{"compound": "CCN1CCN(c2cc3c(cc2F)c(=O)c(C(=O)O)cn3C2CC2)CC1", "target-of-assay": "P. aeruginosa PΔ3 cells", "value-reported": 13.99}
{"compound": "CNC(=C[N+](=O)[O-])NCCSCc1ccc(CN(C)C)o1 [OU-0000840, Ranitidine HCl]", "target-of-assay": "P. aeruginosa PΔ3 cells", "value-reported": 3.53}
{"compound": "CC(C)(C)OC(=O)N1[C@H](CCC2CCCCC2)CNC(=O)[C@@H]1Cc1cc(F)cc(F)c1", "target-of-assay": "P. aeruginosa PΔ3 cells", "value-reported": 29.44}
{"compound": "CC(C)NCC(O)c1ccc(NS(C)(=O)=O)cc1 (centres unmarked) [OU-0032507, Sotalol HCl]", "target-of-assay": "P. aeruginosa PΔ3 cells", "value-reported": 2.90}
{"compound": "COc1c(N2C[C@@H]3CCCN[C@@H]3C2)c(F)cc2c(=O)c(C(=O)O)cn(C3CC3)c12 [OU-0000626, MOXIFLOXACIN HYDROCHLORIDE]", "target-of-assay": "P. aeruginosa PΔ3 cells", "value-reported": 2.61}
{"compound": "COc1cccc2c1C(=O)c1c(O)c3c(c(O)c1C2=O)C[C@@](O)(C(=O)CO)C[C@@H]3O[C@H]1C[C@H](N)[C@H](O)[C@H](C)O1", "target-of-assay": "P. aeruginosa PΔ3 cells", "value-reported": 1.10}
{"compound": "CCCC[C@H]1CNC(=O)[C@H](Cc2cc(F)cc(F)c2)N1", "target-of-assay": "P. aeruginosa PΔ3 cells", "value-reported": 18.21}
{"compound": "CCn1cc(C(=O)O)c(=O)c2cc(F)c(N3CCNC(C)C3)c(F)c21 (centres unmarked)", "target-of-assay": "P. aeruginosa PΔ3 cells", "value-reported": 6.86}
{"compound": "O=C(c1ccc(OCCN2CCCCC2)cc1)c1c(-c2ccc(O)cc2)sc2cc(O)ccc12 [OU-0000741, Raloxifene HCl]", "target-of-assay": "P. aeruginosa PΔ3 cells", "value-reported": 35.59}
{"compound": "N[C@@H](CC(=O)N1CCn2c(nnc2C(F)(F)F)C1)Cc1cc(F)c(F)cc1F [OU-0000833, Sitagliptin Monophosphate Monohydrate]", "target-of-assay": "P. aeruginosa PΔ3 cells", "value-reported": 4.18}
{"compound": "Cc1oc(=O)oc1CN1CCN(c2cc3c(cc2F)c(=O)c(C(=O)O)c2n3C(C)S2)CC1 (centres unmarked)", "target-of-assay": "P. aeruginosa PΔ3 cells", "value-reported": 8.36}
{"compound": "COc1ccc2cc1Oc1ccc(cc1)C[C@H]1c3cc(c(OC)cc3CCN1C)Oc1c(OC)c(OC)cc3c1[C@H](C2)N(C)CC3", "target-of-assay": "P. aeruginosa PΔ3 cells", "value-reported": 5.95}
{"compound": "CS(=O)(=O)O.C[C@H]1COc2c(C3(N)CC3)c(F)cc3c(=O)c(C(=O)O)cn1c23 [OU-0000627, PAZUFLOXACIN MESYLATE]", "target-of-assay": "P. aeruginosa PΔ3 cells", "value-reported": 5.01}
{"compound": "O=C1NC[C@@H](CCC2CCCCC2)N[C@H]1Cc1cc(F)cc(F)c1", "target-of-assay": "P. aeruginosa PΔ3 cells", "value-reported": 12.40}
{"compound": "O=C1N[C@@H](Cc2c[nH]c3ccccc23)C(=O)N2CCC[C@@H]12", "target-of-assay": "P. aeruginosa PΔ3 cells", "value-reported": 3.06}
{"compound": "CC(Cc1ccc(O)cc1)NCC(O)c1cc(O)cc(O)c1 (centres unmarked)", "target-of-assay": "P. aeruginosa PΔ3 cells", "value-reported": 1.99}
{"compound": "COc1ccc(CCN(C)CCCC(C#N)(c2ccc(OC)c(OC)c2)C(C)C)cc1OC (centres unmarked) [OU-0000734, Verapamil HCl]", "target-of-assay": "P. aeruginosa PΔ3 cells", "value-reported": 12.00}
{"compound": "CCn1cc(C(=O)O)c(=O)c2cc3c(cc21)OCO3", "target-of-assay": "P. aeruginosa PΔ3 cells", "value-reported": 6.58}
{"compound": "Cc1cc(C)nc(NS(=O)(=O)c2ccc(N)cc2)n1", "target-of-assay": "P. aeruginosa PΔ3 cells", "value-reported": 1.35}
{"compound": "C=CCN1CC(CCCC)N(C(=O)OC(C)(C)C)C(Cc2ccccc2)C1=O (centres unmarked)", "target-of-assay": "P. aeruginosa PΔ3 cells", "value-reported": 3.52}
{"compound": "CCN1CCCC1CNC(=O)c1cc(S(N)(=O)=O)ccc1OC.Cl (centres unmarked) [OU-0032505, Sulpiride HCl]", "target-of-assay": "P. aeruginosa PΔ3 cells", "value-reported": 6.27}
{"compound": "C[C@H]1COc2c(N3CCN(C)CC3)c(F)cc3c(=O)c(C(=O)O)cn1c23", "target-of-assay": "P. aeruginosa PΔ3 cells", "value-reported": 5.63}
{"compound": "CCn1cc(C(=O)O)c(=O)c2cc(F)c(N3CCN(C)CC3)cc21 [OU-0000619, PEFLOXACINE MESYLATE]", "target-of-assay": "P. aeruginosa PΔ3 cells", "value-reported": 34.80}
{"compound": "CCn1cc(C(=O)O)c(=O)c2cc(F)c(N3CCNCC3)cc21", "target-of-assay": "P. aeruginosa PΔ3 cells", "value-reported": 26.08}
{"compound": "O=C1CC2(CCCC2)CC(=O)N1CCCCN1CCN(c2ncccn2)CC1 [OU-0000735, Buspirone HCl]", "target-of-assay": "P. aeruginosa PΔ3 cells", "value-reported": 6.60}
{"compound": "CC[C@H]1CN2CCc3cc(OC)c(OC)cc3[C@@H]2C[C@@H]1C[C@H]1NCCc2cc(OC)c(OC)cc21.Cl.Cl [OU-0032504, Emetine DIHCl]", "target-of-assay": "P. aeruginosa PΔ3 cells", "value-reported": 0.76}
{"compound": "C[C@@H]1CN(c2c(F)c(N)c3c(=O)c(C(=O)O)cn(C4CC4)c3c2F)C[C@H](C)N1", "target-of-assay": "P. aeruginosa PΔ3 cells", "value-reported": 4.11}
{"compound": "CC1CN=C(c2ccc(NC(=O)Nc3ccc(C4=NCCN4)cc3)cc2)N1.Cl (centres unmarked)", "target-of-assay": "P. aeruginosa PΔ3 cells", "value-reported": 5.05}
{"compound": "COc1c(N2CCNC(C)C2)c(F)cc2c(=O)c(C(=O)O)cn(C3CC3)c12 (centres unmarked)", "target-of-assay": "P. aeruginosa PΔ3 cells", "value-reported": 4.13}
{"compound": "COc1cnc(NS(=O)(=O)c2ccc(N)cc2)nc1", "target-of-assay": "P. aeruginosa PΔ3 cells", "value-reported": 1.82}
{"compound": "CC(CCc1ccccc1)NCC(O)c1ccc(O)c(C(N)=O)c1 (centres unmarked) [OU-0000748, Labetalol HCl]", "target-of-assay": "P. aeruginosa PΔ3 cells", "value-reported": 22.85}
